Sourced from the NIST ThermoML archive (doi:10.1016/j.fluid.2006.07.015)

Please provide measured activity coefficient for the entries that follow.
- TEST NAME: activity coefficient (dimensionless); of the first substance listed, at infinite dilution; xn = mol fraction of the nth substance listed
- RECORDED CONDITIONS: 373.15 K; 101 kPa; Liquid; Chromatography; x1 = 0
The answer should be written as a number, with no unit following it.

Query: Return reported activity coefficient; argument: CCCCCCCC [octane] + CCCCCCCCCCCCCCCCCCC(CCCCCCCCCCCCCCCCCC)CCCCC(CCCCCCCCCCCCCCCCCC)CCCCCCCCCCCCCCCCCC
Response: 0.38

Query: Return reported activity coefficient; argument: CCCCCCc1ccccc1 [hexylbenzene] + CCCCCCCCCCCCCCCCCCC(CCCCCCCCCCCCCCCCCC)CCCCC(CCCCCCCCCCCCCCCCCC)CCCCCCCCCCCCCCCCCC
Response: 0.397

Query: Return reported activity coefficient; argument: CCCCc1ccccc1 [butylbenzene] + CCCCCCCCCCCCCCCCCCC(CCCCCCCCCCCCCCCCCC)CCCCC(CCCCCCCCCCCCCCCCCC)CCCCCCCCCCCCCCCCCC
Response: 0.357
